# Test system: PC-3 (Prostate Cancer)
# method: NCI60 screen (SRB)
# Assay type: cell-based, human
# setup_conditions: one dose 10 µM, 48 h
value_kind: growth percent (%)
Give bare numbers, in %.

Example results:
# compound, growth percent (%)
rows = [
    ("COc1ccc(/C=C/C(c2cc(OC)c(OC)c(OC)c2)n2cncn2)cc1O (centres unmarked) [Compound 22b]", 23.47),
    ("COc1ccc(/C=C/C(c2cc(OC)c(OC)c(OC)c2)n2ccnc2)cc1O (centres unmarked) [Compound 23b]", 25.28),
    ("COc1ccc(/C=C/C(c2cc(OC)c(OC)c(OC)c2)n2cncn2)cc1 (centres unmarked) [Compound 22a]", 31.20),
    ("COc1cc(/C=C/C(/C=C/c2cc(OC)c(OC)c(OC)c2)n2ccnc2)cc(OC)c1OC", 58.09),
]

API: the following record is the query input.
# input Identify the reported growth percent for the following entry. COc1ccc(C2CC(n3ccnc3)c3cc(OC)c(OC)c(OC)c32)cc1O (centres unmarked) [Compound 27a]
# output 60.69

---

# method: Cytotoxicity in MCF-10A cells (alamarBlue)
# Format: cell-based, human
# setup_conditions: human, MCF-10A non-tumorigenic mammary epithelial cells, 0.4 μM, 72 h
value_kind: viability at 72 h, 0.4 µM

# compound, recorded_value
data = [
    ("COc1ccc(/C=C/C(c2cc(OC)c(OC)c(OC)c2)n2cncn2)cc1O (centres unmarked) [Compound 22b]", "> 80%"),
]

# ---- query compound ----
# input Retrieve viability at 72 h, 0.4 µM measured for COc1ccc(/C=C/C(c2cc(OC)c(OC)c(OC)c2)n2cncn2)cc1 (centres unmarked) [Compound 22a] and print it.
# output > 80%

---

# Tested on: T-47D (Breast Cancer)
# method: NCI60 screen (SRB)
# Assay type: cell-based, human
# setup_conditions: one dose 10 µM, 48 h
Please respond with reported growth percent for every item in the list.
Answers are plain numbers, in %.

# compound, subject_of_test, recorded_value
data = [
    ("COc1ccc(/C=C/C(c2cc(OC)c(OC)c(OC)c2)n2cncn2)cc1 (centres unmarked) [Compound 22a]", "T-47D (Breast Cancer)", 30.79),
    ("COc1ccc(/C=C/C(c2cc(OC)c(OC)c(OC)c2)n2ccnc2)cc1O (centres unmarked) [Compound 23b]", "T-47D (Breast Cancer)", 40.62),
    ("COc1ccc(/C=C/C(c2cc(OC)c(OC)c(OC)c2)n2cncn2)cc1O (centres unmarked) [Compound 22b]", "T-47D (Breast Cancer)", 34.38),
    ("COc1cc(/C=C/C(/C=C/c2cc(OC)c(OC)c(OC)c2)n2ccnc2)cc(OC)c1OC", "T-47D (Breast Cancer)", 77.54),
]

# input Name the recorded growth percent of the compound listed here: COc1ccc(C2CC(n3ccnc3)c3cc(OC)c(OC)c(OC)c32)cc1O (centres unmarked) [Compound 27a]
# output 94.34

---

What growth percent was measured for each of the following?
# System: NCI-H226 (Non-Small Cell Lung Cancer)
# method: NCI60 screen (SRB)
# Format: cell-based, human
# setup_conditions: one dose 10 µM, 48 h
Give bare numbers, in %.

# compound, growth percent (%)
measured = [
    ("COc1ccc(/C=C/C(c2cc(OC)c(OC)c(OC)c2)n2ccnc2)cc1O (centres unmarked) [Compound 23b]", 88.36),
    ("COc1ccc(/C=C/C(c2cc(OC)c(OC)c(OC)c2)n2cncn2)cc1O (centres unmarked) [Compound 22b]", 62.21),
    ("COc1ccc(/C=C/C(c2cc(OC)c(OC)c(OC)c2)n2cncn2)cc1 (centres unmarked) [Compound 22a]", 75.97),
    ("COc1ccc(C2CC(n3ccnc3)c3cc(OC)c(OC)c(OC)c32)cc1O (centres unmarked) [Compound 27a]", 97.37),
]

# input Please report growth percent for the following compound: `COc1cc(/C=C/C(/C=C/c2cc(OC)c(OC)c(OC)c2)n2ccnc2)cc(OC)c1OC`
# output 84.81

---

# method: Cytotoxicity in MCF-10A cells (alamarBlue)
# Type: cell-based, human
# setup_conditions: human, MCF-10A non-tumorigenic mammary epithelial cells, 1 μM, 72 h, read-out: cell viability
value_kind: viability at 72 h, 1 µM (%)
One number for each entry, in %.

# input Answer with the recorded viability at 72 h, 1 µM for the compound listed here: COc1ccc(/C=C/C(c2cc(OC)c(OC)c(OC)c2)n2cncn2)cc1O (stereo not shown) [Compound 22b]
# output 55

---

# System: SK-MEL-2 (Melanoma)
# method: NCI60 screen (SRB)
# Format: cell-based, human
# setup_conditions: one dose 10 µM, 48 h
value_kind: growth percent (%)
Numbers only, in %.

Answered cases to consult:
# compound, growth percent, %
measured = [
    ("COc1ccc(/C=C/C(c2cc(OC)c(OC)c(OC)c2)n2cncn2)cc1 (centres unmarked) [Compound 22a]", 12.89),
    ("COc1cc(/C=C/C(/C=C/c2cc(OC)c(OC)c(OC)c2)n2ccnc2)cc(OC)c1OC", 81.02),
    ("COc1ccc(/C=C/C(c2cc(OC)c(OC)c(OC)c2)n2cncn2)cc1O (centres unmarked) [Compound 22b]", 18.23),
    ("COc1ccc(C2CC(n3ccnc3)c3cc(OC)c(OC)c(OC)c32)cc1O (centres unmarked) [Compound 27a]", 89.63),
]

Kindly consider the entry below.
# input Give recorded growth percent. COc1ccc(/C=C/C(c2cc(OC)c(OC)c(OC)c2)n2ccnc2)cc1O (centres unmarked) [Compound 23b]
# output 41.65

---

# Tested on: LOX IMVI (Melanoma)
# method: NCI60 screen (SRB)
# Type: cell-based, human
# setup_conditions: one dose 10 µM, 48 h
Mark each entry 1 (yes) if its growth percent sits below 50%, and 0 (no) for all others.

Here's what some known entries look like.
# molecule, class_assignment
data = [
    ("COc1cc(/C=C/C(/C=C/c2cc(OC)c(OC)c(OC)c2)n2ccnc2)cc(OC)c1OC", "0 (no)"),
    ("COc1ccc(C2CC(n3ccnc3)c3cc(OC)c(OC)c(OC)c32)cc1O (centres unmarked) [Compound 27a]", "0 (no)"),
]

# input Report whether reported growth percent is lower than 50% (strictly) for COc1ccc(/C=C/C(c2cc(OC)c(OC)c(OC)c2)n2ccnc2)cc1O (centres unmarked) [Compound 23b]
# output 1 (yes)

---

Exercise: state measured growth percent for each of the molecules provided.
# Test system: HL-60 (TB) (Leukemia)
# method: NCI60 screen (SRB)
# Assay type: cell-based, human
# setup_conditions: HL-60 (TB); one dose 10 µM; 48 h
One number for each entry, in %.

Each molecule below has a recorded value; state its growth percent.
1. COc1ccc(C2CC(n3ccnc3)c3cc(OC)c(OC)c(OC)c32)cc1O (centres unmarked) [Compound 27a]
2. COc1ccc(/C=C/C(c2cc(OC)c(OC)c(OC)c2)n2cncn2)cc1 (centres unmarked) [Compound 22a]
3. COc1ccc(/C=C/C(c2cc(OC)c(OC)c(OC)c2)n2ccnc2)cc1O (centres unmarked) [Compound 23b]

# output
1. 83.57
2. −17.94
3. −36.59

Record growth percent for all entries; do not skip any.
1. COc1cc(/C=C/C(/C=C/c2cc(OC)c(OC)c(OC)c2)n2ccnc2)cc(OC)c1OC [Compound 30]
2. COc1ccc(/C=C/C(c2cc(OC)c(OC)c(OC)c2)n2cncn2)cc1O (centres unmarked) [Compound 22b]

# output
70.60
−36.28

---

# Test system: SR (Leukemia)
# method: NCI60 screen (SRB)
# Assay type: cell-based, human
# setup_conditions: one dose 10 µM, 48 h
Note to self: growth percent under 6% means t, ties and anything higher get f.

Reference set, count: 2
# compound, subject_of_test, class_assignment
data = [
    ("COc1ccc(/C=C/C(c2cc(OC)c(OC)c(OC)c2)n2cncn2)cc1 (centres unmarked) [Compound 22a]", "SR (Leukemia)", "f"),
    ("COc1ccc(/C=C/C(c2cc(OC)c(OC)c(OC)c2)n2cncn2)cc1O (centres unmarked) [Compound 22b]", "SR (Leukemia)", "t"),
]

# input Lab log: compare recorded growth percent with 6%; is it strictly lower for `COc1cc(/C=C/C(/C=C/c2cc(OC)c(OC)c(OC)c2)n2ccnc2)cc(OC)c1OC` ?
# output f

# input Does the reported growth percent of the following compound sit strictly below 6%? COc1ccc(C2CC(n3ccnc3)c3cc(OC)c(OC)c(OC)c32)cc1O (centres unmarked) [Compound 27a]
# output f

---

# Test system: DU-145 (Prostate Cancer)
# method: NCI60 screen (SRB)
# Type: cell-based, human
# setup_conditions: one dose 10 µM, 48 h
Param label: returns yes (1) when growth percent < 60%, returns no (0) otherwise, including exact equality.

# compound, class_assignment
rows = [
    ("COc1ccc(/C=C/C(c2cc(OC)c(OC)c(OC)c2)n2ccnc2)cc1O (centres unmarked) [Compound 23b]", "yes (1)"),
]

# input Criterion: growth percent strictly below 60%. Is it met by COc1cc(/C=C/C(/C=C/c2cc(OC)c(OC)c(OC)c2)n2ccnc2)cc(OC)c1OC [Compound 30] ?
# output no (0)

# input Please determine if COc1ccc(/C=C/C(c2cc(OC)c(OC)c(OC)c2)n2cncn2)cc1O (centres unmarked) [Compound 22b] is below 60% in terms of growth percent.
# output yes (1)

# input Check if growth percent falls below 60% for COc1ccc(C2CC(n3ccnc3)c3cc(OC)c(OC)c(OC)c32)cc1O (centres unmarked) [Compound 27a] .
# output no (0)
